This collection of values is drawn from patent US8242118B2.

The molecules listed here are annotated with their pIC50.
measurement_target: Human CCR3 (Homo sapiens, UniProt P51677)
Construct: The cloned CCR3 cDNA was constructed with pcDNA3 vector and transfected into a IC562 cell line; expressed in transfected cells
Sequence (P51677 whole entry): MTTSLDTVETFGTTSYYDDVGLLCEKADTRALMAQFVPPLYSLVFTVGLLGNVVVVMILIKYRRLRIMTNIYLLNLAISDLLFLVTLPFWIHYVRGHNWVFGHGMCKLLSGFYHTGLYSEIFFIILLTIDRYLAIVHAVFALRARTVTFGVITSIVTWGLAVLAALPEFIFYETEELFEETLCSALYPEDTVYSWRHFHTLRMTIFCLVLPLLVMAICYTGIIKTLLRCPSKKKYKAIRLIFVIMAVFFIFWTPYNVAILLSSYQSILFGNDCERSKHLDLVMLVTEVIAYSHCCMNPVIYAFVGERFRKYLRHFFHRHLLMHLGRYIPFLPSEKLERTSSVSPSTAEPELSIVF
assay_details: Calcium mobilization assay, eotaxin-stimulated
Type: cell-based
measurement_conditions: human CCR3-transformed K562 cells, 10 nM eotaxin; compounds of about 40 to 90% purity; read-out: Activity grade Ca2+ (IC50 class)
Protocol: • Human CCR3-transformed K562 cells were used. The cloned CCR3 cDNA was constructed with pcDNA3 vector and transfected into a IC562 cell line. […] The non-specific binding was determined by parallel incubation in the presence of 500 nM of non-labeled eotaxin (Cat.#23209, Genzyme Techne). The radioactivities remained on the filter were measured by liquid scintillation counter (TopCount™, Packard) after an addition of 45 μl/well of scintillant (Microscint20, Cat.#6013621, Packard). […]
pIC50: −log10 of the molar value. Where a name gives a salt, the structure may show the parent alone.

| molecule | pIC50 |
| --- | --- |
| Cl.O=[N+]([O-])c1ccc(Sc2cc(C(F)(F)F)cc(C(F)(F)F)c2)c(S(=O)(=O)N2CCNCC2)c1 [Example 2-20] | > 6.00 |
| Cl.O=[N+]([O-])c1ccc(Oc2cccc(Br)c2)c(S(=O)(=O)N2CCNCC2)c1 [Example 1-39] | > 6.00 |
| Cc1cc(C)cc(Oc2ccc([N+](=O)[O-])cc2S(=O)(=O)N2CCN(c3ccccc3)CC2)c1 [Example 4-7] | < 5.00 |
| O=[N+]([O-])c1ccc(Oc2cc(Cl)cc(Cl)c2)c(S(=O)(=O)N2CCC(N3CCCC3)C2)c1 (centres unmarked) [Example 4-38] | > 6.00 |
| Cl.O=S(=O)(c1cc(Br)ccc1Oc1cc(Cl)cc(Cl)c1)N1CCNCC1 [Example 1-57] | > 6.00 |
| CC1CN(S(=O)(=O)c2cc([N+](=O)[O-])ccc2Oc2cc(Cl)cc(Cl)c2)CC(C)N1 (centres unmarked) [Example 1-93] | > 6.00 |
| Cc1cc(Oc2cc(Cl)cc(Cl)c2)c(S(=O)(=O)N2CCNCC2)cc1[N+](=O)[O-].Cl [Example 1-45] | > 6.00 |
| COCCCN1CCN(S(=O)(=O)c2cc([N+](=O)[O-])ccc2Oc2cc(Cl)cc(Cl)c2)CC1 [Example 4-36] | > 6.00 |
| Cc1cc(C)cc(Oc2cc([N+](=O)[O-])ccc2S(=O)(=O)N2CCNCC2)c1 [Example 23-1, hydrochloride] | > 6.00 |
| Cc1cc(O)cc(Oc2ccc([N+](=O)[O-])cc2S(=O)(=O)N2CCNCC2)c1.Cl [Example 1-71] | > 6.00 |
| N#Cc1ccc(Oc2cc(Cl)cc(Cl)c2)c(S(=O)(=O)N2C[C@H]3C[C@@H]2CN3)c1 [Example 13-4] | > 6.00 |
| O=[N+]([O-])c1ccc(Nc2cccc(F)c2)c(S(=O)(=O)N2CCNCC2)c1 [Example 3-10] | > 6.00 |
| Cl.O=S(=O)(c1cc(Cl)ccc1Oc1cc(Cl)cc(Cl)c1)N1CCNCC1 [Example 1-56] | > 6.00 |
| Cc1cc(C)cc(Oc2ccc(NC(=O)c3cccs3)cc2S(=O)(=O)N2CCNCC2)c1 [Example 7-9] | < 5.00 |
| COc1ccc(Oc2ccc([N+](=O)[O-])cc2S(=O)(=O)N2CCNCC2)cc1 [Example 1-19] | < 5.00 |
| O=[N+]([O-])c1ccc(Oc2cc(Cl)cc(Cl)c2)c(S(=O)(=O)N2CCN(CC3CCCO3)CC2)c1 (centres unmarked) [Example 4-27] | > 6.00 |
| Cc1ccccc1Nc1ccc([N+](=O)[O-])cc1S(=O)(=O)N1CCNCC1 [Example 3-3] | 5.00 to 6.00 |
| CC(=O)c1ccccc1Oc1ccc([N+](=O)[O-])cc1S(=O)(=O)N1CCNCC1.Cl [Example 1-30] | < 5.00 |
| Cl.O=[N+]([O-])c1ccc(Sc2cccc(F)c2)c(S(=O)(=O)N2CCNCC2)c1 [Example 2-19] | > 6.00 |
| CN(C)CC(C)(C)CNS(=O)(=O)c1cc([N+](=O)[O-])ccc1Sc1cc(Cl)cc(Cl)c1 [Example 2-4] | > 6.00 |
